Quick note: these are koff numbers for system: eIF4E (Homo sapiens)
Sequence (P06730 32-217): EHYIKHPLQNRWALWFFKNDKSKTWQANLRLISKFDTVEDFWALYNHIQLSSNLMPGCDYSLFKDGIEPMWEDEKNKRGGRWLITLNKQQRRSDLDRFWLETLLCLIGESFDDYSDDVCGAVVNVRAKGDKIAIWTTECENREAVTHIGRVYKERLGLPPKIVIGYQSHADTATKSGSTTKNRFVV
measure: koff (s⁻¹)

Some entries whose results are on file:
{"compound": "C[n+]1cn([C@H]2CN(CCO)C[C@@H](COP(=O)([O-])OP(=O)(O)OP(=O)(O)OC[C@H]3O[C@@H](n4cnc5c(=O)[nH]c(N)nc54)[C@H](O)[C@@H]3O)O2)c2nc(N)[nH]c(=O)c21", "koff (s⁻¹)": 0.6}
{"compound": "COCCO[C@@H]1[C@H](O)[C@@H](COP(=O)(O)OP(=O)([O-])OP(=O)(O)OC[C@H]2O[C@@H](n3cnc4c(=O)[nH]c(N)nc43)[C@H](OC)[C@@H]2O)O[C@H]1n1c[n+](C)c2c(=O)[nH]c(N)nc21", "koff (s⁻¹)": 0.94}
{"compound": "C[n+]1cn(C2CN(Cc3ccccc3)CC(COP(=O)(O)OP(=O)([O-])OP(=O)([O-])OC[C@H]3O[C@@H](n4c[n+](C)c5c(=O)[nH]c(N)nc54)[C@H](O)[C@@H]3O)O2)c2nc(N)[nH]c(=O)c21 (stereo partly drawn)", "koff (s⁻¹)": 0.33}
{"compound": "CO[C@@H]1[C@H](O)[C@@H](COP(=O)(O)OP(=O)([O-])OP(=O)(O)OC[C@H]2O[C@@H](n3cnc4c(=O)[nH]c(N)nc43)[C@H](O)[C@@H]2O)O[C@H]1n1c[n+](CCOc2ccc(Cl)cc2)c2c(=O)[nH]c(N)nc21", "koff (s⁻¹)": 0.04}
{"compound": "COCCO[C@H]1[C@H](O)[C@@H](COP(=O)(O)OP(=O)([O-])OP(=O)(O)OC[C@H]2O[C@@H](n3cnc4c(=O)[nH]c(N)nc43)[C@H](O)[C@@H]2O)O[C@H]1n1c[n+](C)c2c(=O)[nH]c(N)nc21", "koff (s⁻¹)": 0.9}
{"compound": "CO[C@@H]1[C@H](O)[C@@H](COP(=O)(O)OP(=O)([O-])OP(=O)(O)OCC2CN(Cc3ccccc3)CC(n3c[n+](C)c4c(=O)[nH]c(N)nc43)O2)O[C@H]1n1cnc2c(=O)[nH]c(N)nc21 (stereo partly drawn)", "koff (s⁻¹)": 0.34}
{"compound": "COCCO[C@@H]1[C@H](O)[C@@H](COP(=O)(O)OP(=O)([O-])OP(=O)(O)OC[C@H]2O[C@@H](n3cnc4c(=O)[nH]c(N)nc43)[C@H](O)[C@@H]2O)O[C@H]1n1c[n+](CCOc2ccc(Cl)cc2)c2c(=O)[nH]c(N)nc21", "koff (s⁻¹)": 0.025}

(A) CO[C@@H]1[C@H](O)[C@@H](COP(=O)([O-])OP(=O)([O-])OP(=O)(O)OC[C@H]2O[C@@H](n3c[n+](C)c4c(=O)[nH]c(N)nc43)[C@H](O)[C@@H]2O)O[C@H]1n1c[n+](C)c2c(=O)[nH]c(N)nc21
(B) C#CCN1C[C@@H](COP(=O)([O-])OP(=O)(O)OP(=O)(O)OC[C@H]2O[C@@H](n3cnc4c(=O)[nH]c(N)nc43)[C@H](O)[C@@H]2O)O[C@@H](n2c[n+](C)c3c(=O)[nH]c(N)nc32)C1
Which numeric koff is bigger, that of A or that of B ? Answer with the label corresponding to your selection. B
